src = ChEMBL document CHEMBL5291721

Observed AC50, system Muscarinic acetylcholine receptor M2 (Homo sapiens, UniProt P08172). Also: assay procedure not described here.

Please fill in: AC50 reported for COc1ccnc(C[S+]([O-])c2nc3ccc(OC(F)F)cc3[nH]2)c1OC (stereo not given) = > 10 µM

Please fill in: AC50 reported for CC1(C)S[C@@H]2[C@H](NC(=O)[C@H](N)c3ccc(O)cc3)C(=O)N2[C@H]1C(=O)O = > 10 µM

Please fill in: AC50 reported for N[C@H](Cc1cc(I)c(Oc2cc(I)c(O)c(I)c2)c(I)c1)C(=O)O = > 10 µM

Please fill in: AC50 reported for CCCC(C)(COC(N)=O)COC(=O)NC(C)C (stereo not given) = > 10 µM

Please fill in: AC50 reported for CN(C)c1cc(CNCC(C)(C)C)c(O)c2c1C[C@H]1C[C@H]3[C@H](N(C)C)C(O)=C(C(N)=O)C(=O)[C@@]3(O)C(O)=C1C2=O = 4.25 µM

* * *

Observed AC50, system UniProtKB P0DMS8.
Sequence (P0DMS8 whole entry): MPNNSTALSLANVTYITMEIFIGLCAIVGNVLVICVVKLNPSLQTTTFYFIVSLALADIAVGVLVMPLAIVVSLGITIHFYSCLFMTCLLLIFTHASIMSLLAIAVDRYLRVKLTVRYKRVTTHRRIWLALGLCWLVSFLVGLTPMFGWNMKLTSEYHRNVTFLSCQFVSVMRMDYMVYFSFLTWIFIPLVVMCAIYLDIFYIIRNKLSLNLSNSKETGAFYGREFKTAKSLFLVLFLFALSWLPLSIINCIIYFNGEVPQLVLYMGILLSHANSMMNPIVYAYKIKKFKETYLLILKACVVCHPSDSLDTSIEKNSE
Please reply with the bare figure in µM and do not write the unit itself.

Please fill in: AC50 reported for CC(=N)N1CC[C@H](SC2=C(C(=O)O)N3C(=O)[C@H]([C@@H](C)O)[C@H]3C2)C1 = 140

Please fill in: AC50 reported for C[C@H]1Oc2cc(cnc2N)-c2c(nn(C)c2C#N)CN(C)C(=O)c2ccc(F)cc21 = 1.2

* * *

Test target: Cholecystokinin receptor type A (Homo sapiens); also: assay procedure not described here
Sequence (P32238 whole entry): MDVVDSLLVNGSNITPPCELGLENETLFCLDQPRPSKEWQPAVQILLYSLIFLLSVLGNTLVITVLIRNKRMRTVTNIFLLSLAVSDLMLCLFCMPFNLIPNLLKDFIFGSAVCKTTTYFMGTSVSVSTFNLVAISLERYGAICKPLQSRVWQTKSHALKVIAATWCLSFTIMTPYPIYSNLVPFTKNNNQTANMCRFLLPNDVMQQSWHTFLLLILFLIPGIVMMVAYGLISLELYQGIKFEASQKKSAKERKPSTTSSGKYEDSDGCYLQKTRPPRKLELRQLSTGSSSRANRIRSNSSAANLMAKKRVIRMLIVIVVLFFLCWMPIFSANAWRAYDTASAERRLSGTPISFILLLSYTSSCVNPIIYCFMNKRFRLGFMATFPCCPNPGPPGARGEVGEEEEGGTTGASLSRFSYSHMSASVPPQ
Metric name: AC50

Please fill in: AC50 reported for CN(C)C(=O)Oc1cc(OC(=O)N(C)C)cc(C(O)CNC(C)(C)C)c1 (centres undefined) [BAMBUTEROL] = > 30 µM

Please fill in: AC50 reported for CC(=O)OCC(CCn1cnc2cnc(N)nc21)COC(C)=O [FAMCICLOVIR] = > 30 µM

Please fill in: AC50 reported for C#Cc1cccc(Nc2ncnc3cc(OCCOC)c(OCCOC)cc23)c1 [ERLOTINIB] = 9.1 µM

Please fill in: AC50 reported for NC(=O)c1ncn([C@@H]2O[C@H](CO)[C@@H](O)[C@H]2O)n1 [RIBAVIRIN] = > 10 µM

Please fill in: AC50 reported for Cc1cccc(N(C)C(=S)Oc2ccc3ccccc3c2)c1 [TOLNAFTATE] = > 10 µM

Please fill in: AC50 reported for CC#CCn1c(N2CCC[C@@H](N)C2)nc2c1c(=O)n(Cc1nc(C)c3ccccc3n1)c(=O)n2C [LINAGLIPTIN] = > 30 µM

Please fill in: AC50 reported for N=C(N)NCCCCCCC(=O)NC(O)C(=O)NCCCCNCCCN (centres undefined) = > 30 µM

Please fill in: AC50 reported for O=C(O)c1cc(O)c2c3nc4ccccc4oc-3cc(=O)c2n1 [PIRENOXINE] = 5.1 µM

Please fill in: AC50 reported for C#C[C@]1(O)CC[C@H]2[C@@H]3CCc4cc(OC)ccc4[C@H]3CC[C@@]21C [MESTRANOL] = > 10 µM

* * *

Give measured AC50 for each item. Keep answers brief.
Please reply with the bare figure in nM and do not write the unit itself.

So the reported AC50 for CC(CCc1ccccc1)NC(C)C(O)c1ccc(O)cc1 (stereo not given) , on 5-hydroxytryptamine receptor 2A (Homo sapiens, UniProt P28223), turned out to be 2500

So the reported AC50 for CCN(CC)C(=O)C1CN2CCc3cc(OC)c(OC)cc3C2CC1OC(C)=O (stereo not given) [BENZQUINAMIDE] , on 5-hydroxytryptamine receptor 2A (Homo sapiens, UniProt P28223), turned out to be 588

* * *

Test target: Alpha-2C adrenergic receptor (Homo sapiens, UniProt P18825); also: assay procedure not described here
Sequence (P18825 whole entry): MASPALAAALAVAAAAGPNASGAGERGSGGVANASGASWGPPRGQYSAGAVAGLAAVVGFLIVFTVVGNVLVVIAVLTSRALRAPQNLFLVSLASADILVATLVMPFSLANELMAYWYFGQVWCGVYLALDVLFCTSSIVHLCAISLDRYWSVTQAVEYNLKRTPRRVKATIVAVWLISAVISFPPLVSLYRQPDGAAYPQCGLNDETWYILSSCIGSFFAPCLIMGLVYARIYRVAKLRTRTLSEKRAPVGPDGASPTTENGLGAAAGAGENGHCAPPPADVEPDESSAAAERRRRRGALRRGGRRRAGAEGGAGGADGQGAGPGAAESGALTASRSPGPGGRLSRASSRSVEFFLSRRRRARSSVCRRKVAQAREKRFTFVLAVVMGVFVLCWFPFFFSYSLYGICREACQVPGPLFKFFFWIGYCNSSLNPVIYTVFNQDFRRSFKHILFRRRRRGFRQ
Type: functional
Give measured AC50 for each item. Keep answers brief.

Please fill in: AC50 reported for CN(C)c1cc(CNCC(C)(C)C)c(O)c2c1C[C@H]1C[C@H]3[C@H](N(C)C)C(O)=C(C(N)=O)C(=O)[C@@]3(O)C(O)=C1C2=O [OMADACYCLINE] = > 30 µM

Please fill in: AC50 reported for CC(C)CC(N(C)C)C1(c2ccc(Cl)cc2)CCC1 (configuration not stated) [SIBUTRAMINE] = 3.8 µM

Please fill in: AC50 reported for Cn1c(=O)c2[nH]cnc2n(C)c1=O [THEOPHYLLINE] = > 10 µM

Please fill in: AC50 reported for O=C1NC(=O)C(c2ccccc2)(c2ccccc2)N1 [PHENYTOIN] = > 30 µM

Please fill in: AC50 reported for CNCC[C@H](Oc1cccc2ccccc12)c1cccs1 [DULOXETINE] = 1.4 µM

Please fill in: AC50 reported for CC(C)OC(=O)C(C(=O)OC(C)C)=C1SC=CS1 [MALOTILATE] = > 30 µM

Please fill in: AC50 reported for C[C@H]1Oc2cc(cnc2N)-c2c(nn(C)c2C#N)CN(C)C(=O)c2ccc(F)cc21 [LORLATINIB] = > 30 µM

Please fill in: AC50 reported for CC(=O)S[C@@H]1CC2=CC(=O)CC[C@]2(C)[C@H]2CC[C@@]3(C)[C@@H](CC[C@@]34CCC(=O)O4)[C@H]12 [SPIRONOLACTONE] = > 30 µM

Please fill in: AC50 reported for Clc1ccc(C(Cn2ccnc2)OCc2ccc(Sc3ccccc3)cc2)c(Cl)c1 (configuration not stated) [FENTICONAZOLE] = > 30 µM

Please fill in: AC50 reported for O=c1oc2ccccc2c(O)c1Cc1c(O)c2ccccc2oc1=O [DICUMAROL] = > 10 µM

Please fill in: AC50 reported for COC1=C(OC)C(=O)C(CCCCCCCCCCO)=C(C)C1=O [IDEBENONE] = > 10 µM

Please fill in: AC50 reported for CC1(C)C(C=C(Cl)Cl)C1C(=O)OCc1cccc(Oc2ccccc2)c1 (configuration not stated) [PERMETHRIN] = > 10 µM

Please fill in: AC50 reported for C[C@]12CC[C@H](O)CC1=CC[C@@H]1[C@@H]2CC[C@]2(C)C(c3cccnc3)=CC[C@@H]12 [ABIRATERONE] = > 10 µM

Please fill in: AC50 reported for CC(=O)OCC(=O)[C@@]1(O)CC[C@H]2[C@@H]3CCC4=CC(=O)CC[C@]4(C)C3=CC[C@@]21C [ANECORTAVE ACETATE] = > 10 µM

Please fill in: AC50 reported for N=C(N)c1ccc2cc(OC(=O)c3ccc(N=C(N)N)cc3)ccc2c1 [NAFAMOSTAT] = 3.2 µM

Please fill in: AC50 reported for C[n+]1ccccc1/C=N/O [PRALIDOXIME] = > 30 µM

Please fill in: AC50 reported for CCCC[C@H](C)C[C@H](O)/C=C/[C@H]1[C@H](O)CC(=O)[C@@H]1CCCC/C=C/C(=O)O [LIMAPROST] = > 30 µM

* * *

Test target: Beta-2 adrenergic receptor (Homo sapiens); also: assay procedure not described here
Sequence (P07550 whole entry): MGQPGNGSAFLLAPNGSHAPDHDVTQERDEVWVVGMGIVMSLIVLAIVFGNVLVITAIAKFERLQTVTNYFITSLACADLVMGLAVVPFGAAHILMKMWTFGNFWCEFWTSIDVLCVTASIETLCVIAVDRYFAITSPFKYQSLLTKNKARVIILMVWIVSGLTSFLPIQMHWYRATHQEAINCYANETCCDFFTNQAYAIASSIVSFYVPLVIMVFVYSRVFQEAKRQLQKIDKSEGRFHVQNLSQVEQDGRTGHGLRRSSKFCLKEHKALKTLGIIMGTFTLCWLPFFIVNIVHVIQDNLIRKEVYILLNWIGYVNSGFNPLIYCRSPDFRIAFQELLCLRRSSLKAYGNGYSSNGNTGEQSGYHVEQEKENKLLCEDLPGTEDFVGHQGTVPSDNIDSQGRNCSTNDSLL
Assay type: functional, cell-based
Metric name: AC50

So the reported AC50 for CC(CCc1ccccc1)NC(C)C(O)c1ccc(O)cc1 (stereo not drawn) , on Beta-2 adrenergic receptor (Homo sapiens), turned out to be 0.082 µM

So the reported AC50 for CC(=N)N1CC[C@H](SC2=C(C(=O)O)N3C(=O)[C@H]([C@@H](C)O)[C@H]3C2)C1 , on Beta-2 adrenergic receptor (Homo sapiens), turned out to be > 300 µM

So the reported AC50 for CC[C@H]1OC(=O)[C@H](C)[C@@H](O[C@H]2C[C@@](C)(OC)[C@@H](O)[C@H](C)O2)[C@H](C)[C@@H](O[C@@H]2O[C@H](C)C[C@H](N(C)C)[C@H]2O)[C@](C)(O)C[C@@H](C)/C(=N\OCOCCOC)[C@H](C)[C@@H](O)[C@]1(C)O , on Beta-2 adrenergic receptor (Homo sapiens), turned out to be > 30 µM

* * *

Give measured AC50 for each item. Keep answers brief.
Test target: Alpha-2A adrenergic receptor (Homo sapiens, UniProt P08913); also: assay procedure not described here
Sequence (P08913 whole entry): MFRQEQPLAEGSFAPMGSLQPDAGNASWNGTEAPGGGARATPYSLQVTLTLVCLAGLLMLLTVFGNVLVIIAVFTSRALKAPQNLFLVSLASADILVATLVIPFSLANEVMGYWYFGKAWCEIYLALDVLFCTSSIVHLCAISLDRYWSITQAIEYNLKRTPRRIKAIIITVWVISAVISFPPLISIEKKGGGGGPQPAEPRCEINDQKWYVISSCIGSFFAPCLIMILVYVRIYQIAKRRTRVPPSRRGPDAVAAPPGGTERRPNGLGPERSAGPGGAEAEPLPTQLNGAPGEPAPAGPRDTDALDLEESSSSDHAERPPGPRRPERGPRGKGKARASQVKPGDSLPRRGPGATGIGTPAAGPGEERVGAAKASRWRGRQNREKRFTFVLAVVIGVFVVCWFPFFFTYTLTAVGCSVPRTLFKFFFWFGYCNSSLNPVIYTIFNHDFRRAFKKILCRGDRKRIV
Format: functional, cell-based
Please reply with the bare figure in nM and do not write the unit itself.

Please fill in: AC50 reported for [H]/N=C(\N/C(=N/[H])NCCCCCCNC(=N)NC(=N)Nc1ccc(Cl)cc1)Nc1ccc(Cl)cc1 = 4340

Please fill in: AC50 reported for CC1(C)O[C@@H]2C[C@H]3[C@@H]4C[C@H](F)C5=CC(=O)C=C[C@]5(C)[C@H]4[C@@H](O)C[C@]3(C)[C@]2(C(=O)CO)O1 [FLUNISOLIDE] = 2000

Please fill in: AC50 reported for CCN(CC)C(=O)C1CN2CCc3cc(OC)c(OC)cc3C2CC1OC(C)=O (centres undefined) [BENZQUINAMIDE] = 735

* * *

Test target: Glucocorticoid receptor (Homo sapiens, UniProt P04150); also: assay procedure not described here
Sequence (P04150 whole entry): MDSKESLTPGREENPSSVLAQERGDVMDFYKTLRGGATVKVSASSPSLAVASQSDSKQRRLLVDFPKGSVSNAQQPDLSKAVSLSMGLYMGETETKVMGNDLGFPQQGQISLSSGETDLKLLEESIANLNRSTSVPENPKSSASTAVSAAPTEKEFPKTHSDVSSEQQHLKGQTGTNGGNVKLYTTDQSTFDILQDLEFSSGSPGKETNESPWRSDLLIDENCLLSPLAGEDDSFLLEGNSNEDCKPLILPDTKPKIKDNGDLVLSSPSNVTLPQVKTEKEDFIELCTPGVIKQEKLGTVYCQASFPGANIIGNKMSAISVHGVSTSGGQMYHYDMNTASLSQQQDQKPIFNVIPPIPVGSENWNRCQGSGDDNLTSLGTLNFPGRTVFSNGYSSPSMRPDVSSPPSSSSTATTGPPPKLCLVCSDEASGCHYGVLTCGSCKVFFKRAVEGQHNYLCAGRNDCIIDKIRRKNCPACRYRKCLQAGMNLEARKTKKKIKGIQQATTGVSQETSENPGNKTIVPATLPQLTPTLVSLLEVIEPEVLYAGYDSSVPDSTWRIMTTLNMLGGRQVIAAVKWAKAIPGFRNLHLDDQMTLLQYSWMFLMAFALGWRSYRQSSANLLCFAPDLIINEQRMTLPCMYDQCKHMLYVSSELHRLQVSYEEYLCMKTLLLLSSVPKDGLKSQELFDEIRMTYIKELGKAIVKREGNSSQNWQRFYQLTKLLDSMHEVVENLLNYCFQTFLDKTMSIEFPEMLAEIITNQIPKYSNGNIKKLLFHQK
Give measured AC50 for each item. Keep answers brief.

Please fill in: AC50 reported for C[C@]12CC[C@H](O)CC1=CC[C@@H]1[C@@H]2CC[C@]2(C)C(c3cccnc3)=CC[C@@H]12 = > 30 µM

Please fill in: AC50 reported for CC(=O)c1ccc2c(c1)N(CCCN1CCC(CCO)CC1)c1ccccc1S2 = > 30 µM

Please fill in: AC50 reported for Cc1cccc(N(C)C(=S)Oc2ccc3ccccc3c2)c1 [TOLNAFTATE] = > 30 µM

Please fill in: AC50 reported for Cc1ccc(NC(=O)C2(c3ccc4c(c3)OC(F)(F)O4)CC2)nc1-c1cccc(C(=O)O)c1 = > 30 µM

Please fill in: AC50 reported for CCCC[C@H](C)C[C@H](O)/C=C/[C@H]1[C@H](O)CC(=O)[C@@H]1CCCC/C=C/C(=O)O = > 30 µM

Please fill in: AC50 reported for N#C[C@@H]1CCCN1C(=O)CNC12CC3CC(CC(O)(C3)C1)C2 = > 30 µM

Please fill in: AC50 reported for CCC(C)(Oc1ccc(C2(c3ccc(OC(C)(CC)C(=O)O)cc3)CCCCC2)cc1)C(=O)O (stereo not given) [CLINOFIBRATE] = > 30 µM

Please fill in: AC50 reported for CC[C@H]1OC(=O)[C@H](C)[C@@H](O[C@H]2C[C@@](C)(OC)[C@@H](O)[C@H](C)O2)[C@H](C)[C@@H](O[C@@H]2O[C@H](C)C[C@H](N(C)C)[C@H]2O)[C@](C)(OC)C[C@@H](C)C(=O)[C@H](C)[C@@H](O)[C@]1(C)O = > 30 µM

Please fill in: AC50 reported for Cc1cnc(NC(=O)C2=C(O)c3ccccc3S(=O)(=O)N2C)s1 = > 30 µM

Please fill in: AC50 reported for O=C1NC(=O)C(c2ccccc2)(c2ccccc2)N1 = > 30 µM

Please fill in: AC50 reported for COCCOC(=O)C1=C(C)NC(C)=C(C(=O)OC/C=C/c2ccccc2)C1c1cccc([N+](=O)[O-])c1 (stereo not given) = 6.5 µM

Please fill in: AC50 reported for NC(=O)CCC/N=C(\c1ccc(Cl)cc1)c1cc(F)ccc1O [PROGABIDE] = > 10 µM

Please fill in: AC50 reported for CC(=O)Nc1c(I)c(C(=O)N[C@H]2C(O)O[C@H](CO)[C@@H](O)[C@@H]2O)c(I)c(N(C)C(C)=O)c1I (stereo not given in full) [METRIZAMIDE] = > 10 µM

Please fill in: AC50 reported for CC[C@@H](CO)NC(=O)[C@@H]1C=C2c3cccc4[nH]cc(c34)C[C@H]2N(C)C1 = > 30 µM

Please fill in: AC50 reported for CCCN(CC)C(CC)C(=O)Nc1c(C)cccc1C (stereo not given) = > 30 µM
